# System: HSV-1
# Measurement Notes: HSV-1 replication in Vero 76 cells, viral DNA hybridization capture assay
# Type: cell-based, herpes simplex virus 1
# Particulars: Human alphaherpesvirus 1; HSV-1 infected Vero 76 cells, MOI=0.001, 40–48 hours incubation, HSV DNA detected by hybridization/chemiluminescence
Param label: returns yes when IC50 < 600 nM, returns no otherwise, including exact equality.

molecule="COc1ccc(-c2nn3c(NC4CCCC4)cccc3c2-c2ccnc(Nc3cccc(N=[N+]=[N-])c3)n2)cc1 [Example 13]" label=no
molecule="COc1ccc(-c2nn3c(NC4CCCC4)cccc3c2-c2ccnc(Nc3cccc(CO)c3)n2)cc1 [Example 11]" label=no
molecule="Fc1ccc(-c2nn3ccc(Cl)cc3c2-c2ccnc(Nc3ccccc3)n2)cc1 [Example 6]" label=no
molecule="Fc1ccc(-c2nn3c(NC4CCCC4)cccc3c2-c2ccnc(Nc3ccccc3)n2)cc1 [Example 1]" label=yes
molecule="Fc1ccc(-c2nn3ccc(NC4CCCC4)cc3c2-c2ccnc(Nc3ccccc3)n2)cc1 [Example 7]" label=no
molecule="Fc1ccc(-c2nn3c(NC4CCCC4)cc(Cl)cc3c2-c2ccnc(Nc3ccccc3)n2)cc1 [Example 8]" label=yes
molecule="COc1ccc(-c2nn3c(NC4CCCC4)cccc3c2-c2ccnc(Nc3cccc([N+](=O)[O-])c3)n2)cc1 [Example 10]" label=no

====

Quick reference for pIC50 among some compounds
# Tested on: HSV-1
# Measurement Notes: HSV-1 replication in Vero 76 cells, viral DNA hybridization capture assay
# Assay type: cell-based, herpes simplex virus 1
# Particulars: Human alphaherpesvirus 1; HSV-1 infected Vero 76 cells, MOI=0.001, 40–48 hours incubation, HSV DNA detected by hybridization/chemiluminescence
pIC50: −log10 of the molar value.
Measurement Name: pIC50

compound_structure=COc1cc(Nc2nccc(-c3c(-c4ccc(F)cc4)nn4c(NC5CCCC5)cccc34)n2)cc(OC)c1OC obs_value=6.40
compound_structure=COc1ccc(Nc2nccc(-c3c(-c4ccc(F)cc4)nn4c(NC5CCCC5)cccc34)n2)cc1 obs_value=5.90
compound_structure=CCSc1cc(Cl)cc2c(-c3ccnc(Nc4ccccc4)n3)c(-c3ccc(F)cc3)nn12 obs_value=5.70
compound_structure=COc1ccc(-c2nn3c(NC4CCCC4)cccc3c2-c2ccnc(Nc3cccc(N)c3)n2)cc1 obs_value=6.15
compound_structure=COc1ccc(-c2nn3c(NC4CCCC4)cccc3c2-c2ccnc(Nc3cccc(C(=O)c4ccccc4)c3)n2)cc1 obs_value=5.55

The measurements presented in this section are drawn from patent US7160897B2.
